assay-system: recombinant human ALK enzyme (ALK WT) (Homo sapiens, UniProt Q9UM73)
Construct: purchased Carna Biosciences 08-518
Sequence (Q9UM73 1058-1620 limits assumed): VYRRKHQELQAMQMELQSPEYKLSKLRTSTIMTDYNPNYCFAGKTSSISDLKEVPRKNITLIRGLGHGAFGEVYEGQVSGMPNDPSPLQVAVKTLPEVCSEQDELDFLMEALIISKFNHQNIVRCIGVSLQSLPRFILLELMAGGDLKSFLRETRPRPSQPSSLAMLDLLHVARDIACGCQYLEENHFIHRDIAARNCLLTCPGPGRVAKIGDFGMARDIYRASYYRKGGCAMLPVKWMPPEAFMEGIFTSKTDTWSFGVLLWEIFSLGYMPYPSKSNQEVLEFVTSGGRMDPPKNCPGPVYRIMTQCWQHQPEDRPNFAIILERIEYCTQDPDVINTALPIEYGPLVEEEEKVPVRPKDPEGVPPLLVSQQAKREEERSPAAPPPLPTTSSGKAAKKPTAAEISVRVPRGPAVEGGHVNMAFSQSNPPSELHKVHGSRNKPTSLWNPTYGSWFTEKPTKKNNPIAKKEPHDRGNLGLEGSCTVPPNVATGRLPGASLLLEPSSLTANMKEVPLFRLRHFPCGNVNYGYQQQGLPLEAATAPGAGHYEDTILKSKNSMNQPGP
measurement-protocol: ALK WT cell free enzymatic assay (TR-FRET)
Assay type: biochemical
settings: compound at 100 nM; 30 min pre-incubation; 1 μM ATP
Where a name gives a salt, the structure may show the parent alone.
assay-endpoint: inhibition at 0.1 µM (%)

• Cc1nn(Cc2cc(F)ccc2F)c(C)c1-c1c[nH]c2ncc(-c3ccc(N4CCNCC4)cc3)cc12 [Example 42, hydrochloride] = 92
• COc1ccc(-c2cnc3[nH]cc(-c4c(C)nn(Cc5cc(F)cc(F)c5)c4C)c3c2)cc1NS(C)(=O)=O = 63
• c1ccc(CCn2cc(-c3c[nH]c4ncc(-c5cccc(OC6CCNCC6)c5)cc34)cn2)cc1 = 76
• Cc1cccc(Cn2cc(-c3c[nH]c4ncc(-c5ccc(C6CCNCC6)cc5)cc34)cn2)c1 = 95
• Cc1nn(Cc2cccc(F)c2)c(C)c1-c1c[nH]c2ncc(-c3ccc(OCCN(C)C)c(NS(C)(=O)=O)c3)cc12 = 73
• CS(=O)(=O)Nc1cc(-c2cnc3[nH]cc(-c4cnn(CCc5ccccc5)c4)c3c2)ccc1F = 85
• CS(=O)(=O)Nc1cc(-c2cnc3[nH]cc(-c4cnn(Cc5cccc(F)c5)c4)c3c2)ccc1N1CCNCC1 [Example 106, hydrochloride] = 97

###

assay-system: recombinant human ALK enzyme (ALK WT) (Homo sapiens)
Construct: purchased Carna Biosciences 08-518
measurement-protocol: ALK WT cell free enzymatic assay (TR-FRET)
Type: biochemical
settings: compound at 100 nM; 30 min pre-incubation; 1 μM ATP
Where a name gives a salt, the structure may show the parent alone.
Reported inhibition at 0.1 µM is given for each of the following compounds.
assay-endpoint: inhibition at 0.1 µM

- COc1ccc(-c2cnc3[nH]cc(-c4cnn(CCc5cccc(F)c5)c4)c3c2)cc1NS(C)(=O)=O: 61%
- COc1cccc(Cn2cc(-c3c[nH]c4ncc(-c5ccc(C6CCNCC6)cc5)cc34)cn2)c1: 84%
- COc1ccc(-c2cnc3[nH]cc(-c4cnn(CCc5ccc(F)cc5)c4)c3c2)cc1NS(C)(=O)=O: 32%
- Cc1nn(Cc2cc(F)cc(F)c2)c(C)c1-c1c[nH]c2nc(C3CC3)c(-c3ccc(N4CCNCC4)cc3)cc12 [Example 60, hydrochloride]: 9%
- COc1cc(-c2cnc3[nH]cc(-c4cnn(Cc5cccc(F)c5)c4)c3c2)ccc1NS(C)(=O)=O: 70%
- Fc1cccc(Cn2cc(-c3c[nH]c4ncc(-c5ccc(N6CCNCC6)cc5)cc34)cn2)c1 [Example 39, hydrochloride]: 92%
- CNS(=O)(=O)c1cc(-c2cnc3[nH]cc(-c4c(C)nn(Cc5cc(F)ccc5F)c4C)c3c2)ccc1OC: 17%
- Cc1nn(Cc2cccc(F)c2)c(C)c1-c1c[nH]c2ncc(-c3ccc(N4CCN(C)CC4)cc3)cc12: 91%
- CN1CCN(c2ccc(-c3cnc4[nH]cc(-c5cnn(Cc6cc(F)cc(F)c6)c5)c4c3)cn2)CC1: 97%
- Cc1nn(Cc2cccc(F)c2)cc1-c1c[nH]c2ncc(-c3ccc(C4CCNCC4)c(F)c3)cc12: 90%
- Cc1nn(Cc2cccc(OC(F)(F)F)c2)c(C)c1-c1c[nH]c2ncc(-c3ccc(N4CCNCC4)cc3)cc12 [Example 52, hydrochloride]: 12%
- COc1ccc(-c2cnc3[nH]cc(-c4c(C)nn(Cc5cc(F)ccc5F)c4C)c3c2)cc1NS(C)(=O)=O: 62%
- Cc1nn(Cc2cccc(Cl)c2)c(C)c1-c1c[nH]c2ncc(-c3ccc(N4CCNCC4)cc3)cc12 [Example 47, hydrochloride]: 90%
- c1ccc(CCn2cc(-c3c[nH]c4ncc(-c5ccc(N6CCNCC6)cc5)cc34)cn2)cc1: 80%
- CN1CCN(c2ccc(-c3cnc4[nH]cc(-c5cnn(CCc6ccccc6)c5)c4c3)cn2)CC1: 58%
- C[C@@H](O)CN1CCN(c2ccc(-c3cnc4[nH]cc(-c5cnn(Cc6cccc(F)c6)c5)c4c3)cc2)CC1: 95%
- CS(=O)(=O)N1CCN(c2ccc(-c3cnc4[nH]cc(-c5cnn(Cc6cccc(F)c6)c5)c4c3)cc2)CC1: 86%
- O=C(C1CC1)N1CCN(c2ccc(-c3cnc4[nH]cc(-c5cnn(Cc6cccc(F)c6)c5)c4c3)cn2)CC1: 77%
- C[C@H](O)CN1CCN(c2ccc(-c3cnc4[nH]cc(-c5cnn(Cc6cccc(F)c6)c5)c4c3)c(F)c2)CC1: 91%
- COc1nc(N2CCN(C[C@H](C)O)CC2)ccc1-c1cnc2[nH]cc(-c3cnn(Cc4cccc(F)c4)c3)c2c1: 76%
- c1ccc(CCn2cc(-c3c[nH]c4ncc(-c5cccc(CC6CCNCC6)c5)cc34)cn2)cc1: 24%
- Cc1cc(-c2cnc3[nH]cc(-c4cnn(Cc5cccc(F)c5)c4)c3c2)ccc1N1CCN(C[C@H](C)O)CC1: 94%
- COc1cc(-c2cnc3[nH]cc(-c4cnn(Cc5cc(F)cc(F)c5)c4)c3c2)ccc1NS(C)(=O)=O: 92%
- COc1cc(-c2cnc3[nH]cc(-c4c(C)nn(Cc5cccc(F)c5)c4C)c3c2)cnc1N: 94%
- CN1CCC(c2ccc(-c3cnc4[nH]cc(-c5cnn(Cc6cccc(F)c6)c5)c4c3)cc2)CC1: 96%
- CN(C)CC(=O)N1CCN(c2ccc(-c3cnc4[nH]cc(-c5cnn(Cc6cccc(F)c6)c5)c4c3)cc2)CC1: 96%
- COc1ccc(-c2cnc3[nH]cc(-c4cnn(Cc5cccc(F)c5)c4)c3c2)cc1NS(=O)(=O)C1CC1: 33%
- NC(=O)CN1CCN(c2ccc(-c3cnc4[nH]cc(-c5cnn(Cc6cccc(F)c6)c5)c4c3)cn2)CC1: 99%
- C[C@H](O)CN1CCN(c2ccc(-c3cnc4[nH]cc(-c5cnn(Cc6cccc(Cl)c6)c5)c4c3)cn2)CC1: 93%

###

Reported inhibition at 0.1 µM is given for each of the following molecules.
assay-system: recombinant human ALK enzyme (ALK WT) (Homo sapiens, UniProt Q9UM73)
Construct: purchased Carna Biosciences 08-518
measurement-protocol: ALK WT cell free enzymatic assay (TR-FRET)
Format: biochemical
settings: compound at 100 nM; 30 min pre-incubation; 1 μM ATP
Where a name gives a salt, the structure may show the parent alone.
assay-endpoint: inhibition at 0.1 µM

• COc1ncc(-c2cnc3[nH]cc(-c4cnn(Cc5cccc(F)c5)c4)c3c2)cc1NS(C)(=O)=O = 98%
• COc1ccc(-c2cnc3[nH]cc(-c4ccn(Cc5cc(F)cc(F)c5)n4)c3c2)cc1NS(C)(=O)=O = 15%
• COc1cc(-c2cnc3[nH]cc(-c4cnn(Cc5cccc(F)c5)c4)c3c2)ccc1N1CCN(C[C@H](C)O)CC1 = 90%
• Fc1cccc(Cn2cc(-c3c[nH]c4ncc(-c5ccc(C6CCNCC6)nc5)cc34)cn2)c1 = 91%
• Cc1nn(Cc2cccc(F)c2)c(C)c1-c1c[nH]c2ncc(-c3ccc(C4CCNCC4)c(F)c3)cc12 = 96%
• C[C@H](O)CN1CCN(c2ccc(-c3cnc4[nH]cc(-c5cnn(Cc6cccc(F)c6)c5)c4c3)cn2)CC1 = 100%
• COc1cc(N2CCNCC2)ccc1-c1cnc2[nH]cc(-c3c(C)nn(Cc4cccc(F)c4)c3C)c2c1 [Example 61, hydrochloride] = 73%

###

Reported inhibition at 1 µM is given for each of the following compounds.
assay-system: recombinant human ALK enzyme (ALK WT) (Homo sapiens, UniProt Q9UM73)
Construct: purchased Carna Biosciences 08-518
measurement-protocol: ALK WT cell free enzymatic assay (TR-FRET)
Assay type: biochemical
settings: compound at 1 μM; 30 min pre-incubation; 1 μM ATP
Where a name gives a salt, the structure may show the parent alone.
assay-endpoint: inhibition at 1 µM (%)

• OCCN1CCN(c2ccc(-c3cnc4[nH]cc(-c5cnn(Cc6cccc(F)c6)c5)c4c3)cc2)CC1 [Example 126] = 97
• COc1cc(-c2cnc3[nH]cc(-c4c(C)nn(Cc5cccc(F)c5)c4C)c3c2)ccc1N1CCNCC1 [Example 62, hydrochloride] = 100
• Cc1nn(Cc2cccc(F)c2)c(C)c1-c1c[nH]c2ncc(-c3ccc(N4CCNCC4)cc3)cc12 [Example 40, hydrochloride] = 100
• Cc1cccc(Cn2cc(-c3c[nH]c4ncc(-c5ccc(N6CCN(C[C@H](C)O)CC6)cc5)cc34)cn2)c1 [Example 119] = 93
• COc1ccc(-c2cc3c(-c4c(C)nn(Cc5cc(F)cc(F)c5)c4C)c[nH]c3nc2C2CC2)cc1NS(C)(=O)=O [Example 27] = 8
• CNS(=O)(=O)c1cc(-c2cnc3[nH]cc(-c4c(C)nn(Cc5cc(F)cc(F)c5)c4C)c3c2)ccc1OC [Example 21] = 96
• NC(=O)CN1CCN(c2ccc(-c3cnc4[nH]cc(-c5cnn(Cc6cccc(F)c6)c5)c4c3)cn2)CC1 [Example 139] = 100
• Cc1nn(Cc2cccc(F)c2)cc1-c1c[nH]c2ncc(-c3ccc(N4CCN(C[C@H](C)O)CC4)cc3)cc12 [Example 130] = 99
• CS(=O)(=O)Nc1cccc(-c2cnc3[nH]cc(-c4cnn(Cc5cc(F)cc(F)c5)c4)c3c2)c1 [Example 6] = 99
• CS(=O)(=O)Nc1cccc(-c2cnc3[nH]cc(-c4cnn(Cc5cccc(C#N)c5)c4)c3c2)c1 [Example 11] = 90
• CS(=O)(=O)Nc1cc(-c2cnc3[nH]cc(-c4cnn(CCc5ccccc5)c4)c3c2)ccc1N1CCNCC1 [Example 107, hydrochloride] = 100
• COc1nc(N2CCN(C[C@H](C)O)CC2)ccc1-c1cnc2[nH]cc(-c3cnn(Cc4cccc(F)c4)c3)c2c1 [Example 144] = 94
• CS(=O)(=O)Nc1cccc(-c2cnc3[nH]cc(-c4cnn(Cc5ccccc5)c4)c3c2)c1 [Example 12] = 87
• CN(C)CC(=O)N1CCN(c2ccc(-c3cnc4[nH]cc(-c5cnn(Cc6cccc(F)c6)c5)c4c3)cn2)CC1 [Example 147] = 100
